The reported measurements were obtained from paper PMC9516332.

Target: panel of 255 wild-type kinases (Homo sapiens, UniProt Q05655)
Sequence (Q05655 whole entry): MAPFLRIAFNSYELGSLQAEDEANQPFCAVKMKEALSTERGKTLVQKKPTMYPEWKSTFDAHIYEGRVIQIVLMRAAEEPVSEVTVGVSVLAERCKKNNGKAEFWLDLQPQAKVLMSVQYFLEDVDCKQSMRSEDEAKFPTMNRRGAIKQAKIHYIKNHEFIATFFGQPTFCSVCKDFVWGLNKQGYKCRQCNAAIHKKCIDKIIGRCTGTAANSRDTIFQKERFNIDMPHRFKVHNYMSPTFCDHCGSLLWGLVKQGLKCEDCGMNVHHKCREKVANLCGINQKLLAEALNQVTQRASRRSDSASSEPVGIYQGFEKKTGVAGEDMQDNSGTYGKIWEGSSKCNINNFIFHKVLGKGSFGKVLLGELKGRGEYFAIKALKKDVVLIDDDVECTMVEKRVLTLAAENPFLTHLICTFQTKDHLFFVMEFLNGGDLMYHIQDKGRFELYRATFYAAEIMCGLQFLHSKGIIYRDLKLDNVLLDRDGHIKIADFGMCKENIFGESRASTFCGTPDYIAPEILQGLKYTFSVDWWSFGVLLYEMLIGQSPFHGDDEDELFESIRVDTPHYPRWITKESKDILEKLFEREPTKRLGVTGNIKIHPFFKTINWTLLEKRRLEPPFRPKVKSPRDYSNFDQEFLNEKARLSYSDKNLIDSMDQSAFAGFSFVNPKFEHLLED
Test: Kinase panel profiling at 1 µmol/L (MSA or IMAP), percentage inhibition
Assay type: biochemical
Conditions: kinase PKCδ; 1 µmol/L single concentration; read-out: %-inhibition at 1 µmol/L, PKCδ
property_name: inhibition at 1 µM (%)
Use % as the unit, but write only the number.

Ask | Identify the measured inhibition at 1 µM of `COc1cc2ncnc(Nc3ccc(F)c(Cl)c3)c2cc1NC(=O)/C=C/CN1CCCCC1` for panel of 255 wild-type kinases (Homo sapiens, UniProt Q05655).
Reply | 9

Ask | Identify the measured inhibition at 1 µM of `CCc1nc(C(N)=O)c(Nc2ccc(N3CCC(N4CCN(C)CC4)CC3)c(OC)c2)nc1NC1CCOCC1` for panel of 255 wild-type kinases (Homo sapiens, UniProt Q05655).
Reply | 12

Ask | Identify the measured inhibition at 1 µM of `C[C@H]1Oc2cc(cnc2N)-c2c(nn(C)c2C#N)CN(C)C(=O)c2ccc(F)cc21` for panel of 255 wild-type kinases (Homo sapiens, UniProt Q05655).
Reply | 5

Ask | Identify the measured inhibition at 1 µM of `Cc1nc(NC(=O)N2CCC[C@H]2C(N)=O)sc1-c1ccnc(C(C)(C)C(F)(F)F)c1` for panel of 255 wild-type kinases (Homo sapiens, UniProt Q05655).
Reply | -7.56
